- target-entity: T1, Brn2 DNA-binding domain (BD-Brn2) (Mus musculus (B6), UniProt P31360 336-435)
- T1 sequence: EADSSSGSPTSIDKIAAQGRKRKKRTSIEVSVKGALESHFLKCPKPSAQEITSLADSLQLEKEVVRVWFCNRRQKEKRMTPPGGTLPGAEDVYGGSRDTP
- experiment-summary: EMSA; 10% glycerol, 20 mM HEPES pH 7.8, 45 mM KCl, 10 mM NaCl, 1 mM EDTA, 1 mM DTT, 0.2 ug/uL BSA, 0.1% NP-40, 50 ng poly-dIdC; 20 ng each GST protein; room temperature 30 min (heterodimers 4 C); 6% PAGE 0.25x TBE
- experimental-conditions: protein: recombinant; tags: GST (N-terminal, pGEX-6P-1); label: 32P-dCTP fill-in of the 5' (dG)5 overhangs of both strands (Methods; control probes are given with GGG)
assay-endpoint: binding result

• 33 (dsDNA) DNA 1: GGGGGATAGTACATTTGTTGTCATTAACAAATCAGTCCCCC DNA 2: GGGGGACTGATTTGTTAATGACAACAAATGTACTATCCCCC = binds
• 76 (dsDNA) DNA 1: GGGGGCAGGTATGATTGTCCATATTGCTAATAAACCCCCC DNA 2: GGGGGGTTTATTAGCAATATGGACAATCATACCTGCCCCC = binds
• 4c (dsDNA) DNA 1: GGGGGTAAAATTAACAAACAAGTTACATTATCTAATATACACCCCC DNA 2: GGGGGTGTATATTAGATAATGTAACTTGTTTGTTAATTTTACCCCC = binds
• 80 (dsDNA) DNA 1: GGGGGCATCCCAAATTGTTTTCTCACTTTTGTACCACAGATAGATCCCCC DNA 2: GGGGGATCTATCTGTGGTACAAAAGTGAGAAAACAATTTGGGATGCCCCC = no binding
• 39 (dsDNA) DNA 1: GGGGGTTCAGGTTTTTGTAGGAACTTAAATTTTATGATTAGCCCCC DNA 2: GGGGGCTAATCATAAAATTTAAGTTCCTACAAAAACCTGAACCCCC = binds
• 11 (dsDNA) DNA 1: GGGGGGTGGGGTACAAAAATGGCCCTTTGTGATCAACTCCCCC DNA 2: GGGGGAGTTGATCACAAAGGGCCATTTTTGTACCCCACCCCCC = no binding
• 38 (dsDNA) DNA 1: GGGGGAGGTTTTGATGATTATGAACAAAGCTTCTGTCCCCC DNA 2: GGGGGACAGAAGCTTTGTTCATAATCATCAAAACCTCCCCC = no binding
• 42 (dsDNA) DNA 1: GGGGGGCTTCAGCATTGTGAAATTGAATCATTGCCCCCC DNA 2: GGGGGGCAATGATTCAATTTCACAATGCTGAAGCCCCCC = no binding
• 111 (dsDNA) DNA 1: GGGGGTTCAACCTTTTGTTGTATCATTTAAAAAACATTCCCCC DNA 2: GGGGGAATGTTTTTTAAATGATACAACAAAAGGTTGAACCCCC = binds

// provenance: paper PMC3713010
